Target: Leucine aminopeptidase (Plasmodium falciparum 3D7)
Sequence (Q8IL11 whole entry): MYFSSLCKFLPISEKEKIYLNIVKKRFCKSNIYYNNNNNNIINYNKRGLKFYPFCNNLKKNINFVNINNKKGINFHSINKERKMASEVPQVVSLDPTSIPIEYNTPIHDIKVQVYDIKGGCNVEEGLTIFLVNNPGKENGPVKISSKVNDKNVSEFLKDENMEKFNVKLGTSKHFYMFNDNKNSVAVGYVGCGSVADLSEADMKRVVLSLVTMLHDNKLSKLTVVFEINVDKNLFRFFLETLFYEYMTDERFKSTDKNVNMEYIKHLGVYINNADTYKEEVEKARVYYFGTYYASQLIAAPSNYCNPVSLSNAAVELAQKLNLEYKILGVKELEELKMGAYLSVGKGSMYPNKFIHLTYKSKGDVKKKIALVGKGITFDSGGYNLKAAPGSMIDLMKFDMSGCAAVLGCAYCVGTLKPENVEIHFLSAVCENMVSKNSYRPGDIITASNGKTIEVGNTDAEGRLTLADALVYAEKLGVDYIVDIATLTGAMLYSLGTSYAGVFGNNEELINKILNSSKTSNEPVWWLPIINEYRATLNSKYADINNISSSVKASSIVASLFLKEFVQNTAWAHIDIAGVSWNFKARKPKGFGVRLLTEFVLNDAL
Experiment: P. falciparum M17LAP inhibitors, primary screen, biochemical, fluorogenic H-Leu-NHMec substrate, 1536-well (AID 1619)
Format: functional
Activity calls are given as the source filed them. No rule for the calls is given here.
Consider the following compounds; for each one, report its IC50.

## Input Find IC50 for CC(=O)/C(C#N)=C1\NC(=O)C(Cc2ccccc2Cl)S1 (stereo not given) on Leucine aminopeptidase (Plasmodium falciparum 3D7) and write it down.
## Output 26.6 µM (active)

## Input Quote IC50 with test system Leucine aminopeptidase (Plasmodium falciparum 3D7) for "Cc1cccc(C)c1NC(=O)CSc1nnc(-c2ccco2)c(-c2ccco2)n1"
## Output 18.9 µM (active)

## Input Report value only: IC50, Leucine aminopeptidase (Plasmodium falciparum 3D7), "CCc1nnc(NS(=O)(=O)c2ccc(/N=C/c3c(C)nn(-c4ccc(C)cc4)c3O)cc2)s1"
## Output 8.11 µM (active)

## Input GET IC50 | system: Leucine aminopeptidase (Plasmodium falciparum 3D7) | item: "O=C(Cc1cccs1)NNC(=S)NC(=O)c1ccccc1"
## Output 30 µM (active)

## Input Fill in: IC50 on Leucine aminopeptidase (Plasmodium falciparum 3D7), entry "Oc1cc(O)c2sc3nc(-c4cccnc4)cc(C(F)(F)F)c3c2n1"
## Output 58.2 µM (active)

Each recorded value in this set is attributed to ChEMBL document CHEMBL1201862.
